# Test system: Plasmodium berghei
# Method description: Screen against P. berghei liver stage (PbLuc), transformed with Luciferase, at 10uM
# Format: functional, HepG2
# Reported conditions: tested at 10 uM
Among all 69,000 compounds or so, about 8,600 (12%) showed an effect of 50% or more. Shown is part of a subset that was picked to be rich in strong results.
// returns Not met unless INHIBITION is strictly below 10%, in which case Met

{"Compound": "O=C(NC1CC1)C1(Cc2cc(-c3ccc(F)cc3F)no2)CCOCC1", "Target under test": "Plasmodium berghei", "Category": "Not met"}
{"Compound": "Cc1cc(NC(=O)CN2CCCC2Cn2nc(C)nc2C)n(C)n1 (stereo unspecified)", "Target under test": "Plasmodium berghei", "Category": "Not met"}
{"Compound": "Cn1ccnc1C1(O)CCCN(Cc2ccncc2)CC1 (stereo unspecified)", "Target under test": "Plasmodium berghei", "Category": "Met"}
{"Compound": "O=C1Nc2ccccc2/C1=C1\\CCCCCN1", "Target under test": "Plasmodium berghei", "Category": "Met"}
{"Compound": "CS(=O)(=O)CCn1ccc(NC(=O)CCc2cccc(F)c2)n1", "Target under test": "Plasmodium berghei", "Category": "Not met"}

Let us examine a further case.
*Q* In the record for "Cn1cccc1C(=O)N1CCc2ccc(=O)n(C)c2CC1" , is INHIBITION less than 10%?
*A* Not met
